Run Description: The opioid antagonist potency against PL-107 mu-opioid receptor from guinea pig ileum(GPI).Ke (nM) = [antagonist]/(IC50 ratio-1)
Assay Readout: pKi
Conceptually, pKi converts a concentration in mol/L into minus its log10.

Quick one: pKi of Oc1ccc2c3c1O[C@H]1c4ncc(-c5ccccc5)cc4C[C@@]4(O)[C@@H](C2)N(CC2CC2)CC[C@]314 ? 7.38
